Entry source: the supplement of paper PMC7411054

# System: HepG2-GM130-SQSTM1
# method description: phenotypically active (imaging signature differs from DMSO and reproducible) at any of 0.3-9 uM (binary (1 = active, 0 = inactive)); higher = active
# protocol conditions: treatment time: 24 h
Where a name gives a salt, the structure may show the parent alone.
This listing pairs molecules with measured phenotypically active.

{"molecule": "CC(=O)OCC[N+](C)(C)C", "phenotypically active": 0}
{"molecule": "Nc1ncnc2c1ncn2[C@@H]1O[C@H](CO)[C@@H](O)[C@H]1O", "phenotypically active": 0}
{"molecule": "COCC(=O)O[C@]1(CCN(C)CCCc2nc3ccccc3[nH]2)CCc2cc(F)ccc2[C@@H]1C(C)C", "phenotypically active": 1}
{"molecule": "Oc1cccc(-c2nc(N3CCOCC3)c3oc4ncccc4c3n2)c1 [PI 103 hydrochloride]", "phenotypically active": 1}
{"molecule": "O=C(Nc1c(Cl)cncc1Cl)c1ccc(OC(F)F)c(OCC2CC2)c1", "phenotypically active": 0}
{"molecule": "O=C1Nc2ccc(F)cc2C1=C1Nc2ccccc2C1=NO", "phenotypically active": 1}
{"molecule": "COC(=O)C1CC23C=CCN4CCC5(c6ccccc6NC15[C@H]2C)C43 (some centres undefined) [Vindolinine dichlorhydrate]", "phenotypically active": 0}
{"molecule": "O=C(O)[C@H]1CCCC[C@H]1C(=O)N1CCc2ccccc2[C@H]1CN1C(=O)c2ccccc2C1=O", "phenotypically active": 1}
{"molecule": "CON(C)C(=O)N1N=C(c2cc(F)ccc2F)S[C@@]1(CCCN)c1ccccc1 [ARRY 520 trifluoroacetate]", "phenotypically active": 1}
{"molecule": "CN(C)CCCNc1c2c(=O)n(C)c(=O)nc-2n(C)c2ccccc12", "phenotypically active": 1}
{"molecule": "CC1=C(/C=C/C(C)=C\\C=C\\C(C)=C\\C(=O)O)C(C)(C)CCC1", "phenotypically active": 1}
{"molecule": "Clc1ccc(N/N=C(\\c2ccccc2)c2ccccn2)nc1", "phenotypically active": 1}
{"molecule": "CN(C)CCCSc1ccccc1NC(=O)/C=C/c1ccccc1 [Cinanserin hydrochloride]", "phenotypically active": 0}
{"molecule": "O=C(NC(NC(=S)Nc1ccc(F)c([N+](=O)[O-])c1)C(Cl)(Cl)Cl)C(c1ccccc1)c1ccccc1 (centres undefined)", "phenotypically active": 1}
{"molecule": "NC[C@H](O)c1ccc(O)c(O)c1 [norepinephrine]", "phenotypically active": 0}
{"molecule": "NS(=O)(=O)c1cc2c(cc1Cl)NC(C(Cl)Cl)NS2(=O)=O (centres undefined) [trichlormethiazide]", "phenotypically active": 0}
{"molecule": "CC[C@@H]1C(=O)N(C)c2cnc(Nc3ccc(C(=O)NC4CCN(C)CC4)cc3OC)nc2N1C1CCCC1", "phenotypically active": 1}
{"molecule": "CCN1/C(=C/C(C)=O)Sc2ccc(O)cc21", "phenotypically active": 0}
{"molecule": "O=C(NCCCNc1nc(Nc2cccc(NC(=O)N3CCCC3)c2)ncc1I)c1cccs1", "phenotypically active": 1}

====

# System: A549-ACTB-RAB5A
# method description: phenotypically active (imaging signature differs from DMSO and reproducible) at any of 0.3-9 uM (binary (1 = active, 0 = inactive)); higher = active
# protocol conditions: treatment time: 24 h

{"compound": "Cc1cccc(CCN2CCC(C(=O)c3ccc(NS(C)(=O)=O)cc3)CC2)n1", "phenotypically active": 0}
{"compound": "COc1ccc(-n2c(SCCCN3C(=O)c4cccc5cccc(c45)C3=O)nnc2-c2ccncc2)cc1", "phenotypically active": 0}
{"compound": "CC1(COc2ccc(CC3SC(=O)NC3=O)cc2)CCCCC1 (stereo not given)", "phenotypically active": 0}
{"compound": "CCOC(=O)Nc1ccc2c(c1)N(C(=O)CCN1CCOCC1)c1ccccc1S2", "phenotypically active": 0}
{"compound": "CCNC(=O)c1noc(-c2cc(C(C)C)c(O)cc2O)c1-c1ccc(CN2CCOCC2)cc1", "phenotypically active": 1}

====

# Test system: WPMY1-ACTB-RAB5A
# method description: phenotypically active (imaging signature differs from DMSO and reproducible) at any of 0.3-9 uM (binary (1 = active, 0 = inactive)); higher = active
# protocol conditions: treatment time: 24 h
Counter-ions that a name gives are not always drawn.

{"molecule": "O=C1Cc2cc(CCN3CCN(c4nsc5ccccc45)CC3)c(Cl)cc2N1", "phenotypically active": 0}
{"molecule": "OCC(CO)N[C@H]1C[C@](O)(CO)[C@@H](O)[C@H](O)[C@H]1O", "phenotypically active": 0}
{"molecule": "CSc1ccc2c(c1)N(CCC1CCCCN1C)c1ccccc1S2 (stereo not given)", "phenotypically active": 1}
{"molecule": "C/C=C(/C(=C/C)c1ccc(O)cc1)c1ccc(O)cc1", "phenotypically active": 0}
{"molecule": "CCCCCCCCCN1C[C@H](O)[C@@H](O)[C@H](O)[C@H]1CO", "phenotypically active": 0}
{"molecule": "CCN(CC)CCNC(=O)c1cc(Cl)c(N)cc1OC [metoclopramide]", "phenotypically active": 0}
{"molecule": "CC(C)(C)NC[C@H](O)COc1nsnc1N1CCOCC1", "phenotypically active": 0}
{"molecule": "COc1cc2c(Nc3ccc(Br)cc3F)ncnc2cc1OCC1CCN(C)CC1", "phenotypically active": 1}
{"molecule": "O=c1[nH]cnc2ccccc12", "phenotypically active": 0}
{"molecule": "CN1CCN(C2=Nc3cc(Cl)ccc3Nc3ccccc32)CC1", "phenotypically active": 0}
{"molecule": "Cc1ccc(NC(=O)c2ccc(CN3CCN(C)CC3)cc2)cc1Nc1nc(-c2cccnc2)cs1", "phenotypically active": 1}
{"molecule": "Cn1cc(-c2ccc3nnc(Sc4ccc5ncccc5c4)n3n2)cn1", "phenotypically active": 0}
{"molecule": "CC1=C(/C=C/C(C)=C/C=C/C(C)=C/C(=O)O)C(C)(C)CCC1", "phenotypically active": 0}
{"molecule": "CCCCCCCN(CC)CCCC(O)c1ccc(NS(C)(=O)=O)cc1 (stereo not given) [ibutilide]", "phenotypically active": 0}
{"molecule": "Cc1cc(O)cc2c1C(=O)Oc1cc3c(c(O)c1O2)C(=O)OC3", "phenotypically active": 0}
{"molecule": "COc1cc(C(=O)NC2CCN(C)CC2)c(F)cc1Nc1ncc2c(n1)N(C1CCCC1)CC(F)(F)C(=O)N2C [TAK 960 hydrochloride]", "phenotypically active": 1}
{"molecule": "OCCN1C[C@H](O)[C@@H](O)[C@H](O)[C@H]1CO", "phenotypically active": 0}
{"molecule": "Cc1ccccc1C(OCCN(C)C)c1ccccc1 (stereo not given)", "phenotypically active": 0}
{"molecule": "N#C/C(=C(/N)Sc1ccc(N)cc1)c1ccccc1C(F)(F)F", "phenotypically active": 0}
{"molecule": "CC(=O)CCCCn1c(=O)c2c(ncn2C)n(C)c1=O", "phenotypically active": 0}

====

# Test system: WPMY1-GM130-SQSTM1
# method description: lowest phenotypically active concentration; higher = less potent
# protocol conditions: treatment time: 24 h
Where a name gives a salt, the structure may show the parent alone.
experimental readout: lowest phenotypically active concentration

{"compound": "CC(C)C(=O)SCCCCCCC(=O)Nc1nc(-c2ccccc2)cs1", "recorded result": "1 µM"}
{"compound": "O=C(CCCCSc1nc(-c2ccc(-c3ccccc3)cc2)cc(=O)[nH]1)NO", "recorded result": "≤ 0.3 µM"}
{"compound": "C[C@@H](Nc1ncnc2[nH]c(-c3ccc(O)cc3)cc12)c1ccccc1 [PKI 166 hydrochloride]", "recorded result": "3 µM"}
{"compound": "CC(C)c1cc(-c2n[nH]c(=O)n2-c2ccc3c(ccn3C)c2)c(O)cc1O", "recorded result": "≤ 0.3 µM"}
{"compound": "COc1cc(NC(=O)c2cccc(-n3cc(NC(=O)Nc4cccc(C)c4)cn3)c2)cc(OC)c1OC", "recorded result": "9 µM"}

====

# Tested on: A549-TUBA1B-RELA
# method description: phenotypically active (imaging signature differs from DMSO and reproducible) at any of 0.3-9 uM (binary (1 = active, 0 = inactive)); higher = active
# protocol conditions: treatment time: 24 h
Possible outcomes: 1 (yes) = active, 0 (no) = inactive

{"compound": "CN1C(=O)CC[C@H]1c1cccnc1 [(-)-Cotinine]", "category label": "0 (no)"}
{"compound": "CCN1/C(=C/C(C)=O)Sc2ccc(O)cc21", "category label": "0 (no)"}
{"compound": "Nc1ccc(C(=O)O)c(O)c1 [aminosalicylate]", "category label": "0 (no)"}
{"compound": "CC(=O)[C@H]1CC[C@H]2[C@@H]3CCC4=CC(=O)CC[C@]4(C)[C@H]3CC[C@]12C", "category label": "0 (no)"}
{"compound": "CNCC[C@H](Oc1cccc2ccccc12)c1cccs1", "category label": "1 (yes)"}
{"compound": "Cc1nc2sccn2c(=O)c1CCN1CCC(=C(c2ccc(F)cc2)c2ccc(F)cc2)CC1", "category label": "0 (no)"}
{"compound": "O=C(CCCCCCC(=O)NO)NO", "category label": "0 (no)"}
{"compound": "COc1ccc2c(c1)c(CC(=O)O)c(C)n2C(=O)c1ccc(Cl)cc1", "category label": "0 (no)"}
{"compound": "CNC(=C[N+](=O)[O-])NCCSCc1ccc(CN(C)C)o1", "category label": "0 (no)"}
{"compound": "Nc1nnc2[nH]c3ccccc3nc1-2", "category label": "0 (no)"}
{"compound": "CC(C)(C)c1cnc(CSc2cnc(NC(=O)C3CCNCC3)s2)o1", "category label": "1 (yes)"}
